Assay: Inhibition of mouse Sky kinase assessed as inhibition of src substrate phosphorylation by ELISA
Measured Endpoint: IC50 (nM)

Worked examples, 3 compounds total:
[
  {
    "Compound": "O=C(c1cc2c(Cl)cccc2[nH]1)N1C[C@]2(CCN(C3CCNC3)C2)c2ccccc21 (stereo partly drawn)",
    "IC50 [nM]": 560
  },
  {
    "Compound": "CN1CCC(N2CC[C@]3(CN(C(=O)c4cc5cc(F)ccc5[nH]4)c4ccccc43)C2)CC1",
    "IC50 [nM]": 2880
  },
  {
    "Compound": "O=C(c1cc2cc(F)ccc2[nH]1)N1C[C@]2(CCN(C3CNC3)C2)c2ccccc21",
    "IC50 [nM]": 1810
  }
]

[P] COc1ccc2[nH]c(C(=O)N3C[C@]4(CCN(C5CCNC5)C4)c4ccccc43)cc2c1 (stereo partly drawn)
[Q] O=C(c1cc2cc(Cl)ccc2[nH]1)N1C[C@]2(CCN(C3CCNCC3)C2)c2ccccc21
[R] C[C@@H]1CCC(N2CC[C@]3(CN(C(=O)c4cc5ccccc5[nH]4)c4ccccc43)C2)CN1 (stereo partly drawn)
[S] CCN1CCCC(N2CC[C@]3(CN(C(=O)c4cc5cc(F)ccc5[nH]4)c4ccccc43)C2)C1 (stereo partly drawn)
[T] Cc1ccc2[nH]c(C(=O)N3C[C@]4(CCN(C5CCNC5)C4)c4ccccc43)cc2c1 (stereo partly drawn)
Lookup: // ascending sort on recorded IC50 Field: ranking. Enter the labels in the order requested.
Found: R, P, T, S, Q

[a] O=C(c1cc2cc(Cl)ccc2[nH]1)N1C[C@]2(CCN(C3CCNC3)C2)c2ccccc21 (stereo partly drawn)
[b] C[C@@H]1CCC(N2CC[C@]3(CN(C(=O)c4cc5ccc(F)cc5[nH]4)c4ccccc43)C2)CN1 (stereo partly drawn)
[c] NC(=O)c1ccc2cc(C(=O)N3C[C@]4(CCN(C5CCNC5)C4)c4ccccc43)[nH]c2c1 (stereo partly drawn)
Lookup: Order the records, beginning with the lowest IC50 and ending with the highest. Record the ranking as a list of labels in the requested order.
Found: b, a, c
(b: 189 nM, a: 495 nM, c: 2200 nM)

[1] O=C(c1cc2ccc(F)cc2[nH]1)N1C[C@]2(CCN(C3CCNC3)C2)c2ccccc21 (stereo partly drawn)
[2] O=C(c1cc2cc(F)ccc2[nH]1)N1C[C@]2(CCN(CC3CCCNC3)C2)c2ccccc21 (stereo partly drawn)
Lookup: Given the listed items, does 1 or 2 have the lesser reported IC50? Let me know the label of the one you choose.
Found: 1
(1: 598 nM, 2: 4410 nM)

[P] COc1ccc2cc(C(=O)N3C[C@]4(CCN(C5CCNC5)C4)c4ccccc43)[nH]c2c1 (stereo partly drawn)
[Q] O=C(c1cc2cc(F)ccc2[nH]1)N1C[C@]2(CCN(C3CCCCC3)C2)c2ccccc21
Lookup: I'd appreciate it if you could identify which of P and Q has the greater IC50. Please identify the chosen entry by its label.
Found: Q
(Q: 27900 nM, P: 843 nM)
